Hi, quick share: literature pKi data for Procathepsin L (Homo sapiens), several sources combined.
Scale note: pKi = -log10(concentration in M).

Worked cases, pKi given:
[
  {
    "COMPOUND": "N#C[C@H](Cc1cn(CCC(=O)O)nn1)NC(=O)[C@H](Cc1cccc(Br)c1)NC(=O)c1ccc(-c2ccccc2)cc1",
    "pKi": 5.16
  },
  {
    "COMPOUND": "CC(C)C[C@H](N[C@H](c1ccccc1)C(F)(F)F)C(=O)N[C@H](C#N)Cc1ccccc1",
    "pKi": 6.60
  },
  {
    "COMPOUND": "N#C[C@H](COCc1cn(CCC(=O)O)nn1)NC(=O)[C@H](Cc1ccccc1)NC(=O)OCc1ccccc1",
    "pKi": 5.90
  },
  {
    "COMPOUND": "N#C[C@H](COCc1cn(CC(=O)O)nn1)NC(=O)[C@H](Cc1ccccc1)NC(=O)OCc1ccccc1",
    "pKi": 5.98
  },
  {
    "COMPOUND": "CC(C)(C)OC(=O)N[C@@H](Cc1csc2ccccc12)C(=O)NCC#N",
    "pKi": 6.54
  }
]

Now consider a different compound.
Problem: Form field: reported pKi of CC(C)C[C@H](NC(=O)OCc1ccccc1)C(=O)NC1CCCN(C(=O)[C@H](CC(C)C)NC(=O)OCc2ccccc2)CC1=O (stereo partly drawn)
Solution: 7.33
